Assay: Peroral absorbability in beagles: plasma irinotecan level and pharmacokinetic analysis (Example 6)
Assay type: in vivo
Conditions: male, beagle, dog, plasma, oral, 10 mg/kg, peroral capsule, 10 mg/kg as irinotecan, 20 min after administration, mean (n=6) ± SD
Structures can show the parent of a compound that is named as a salt.
measure.name: concentration at 20 min (ng/mL)

>>> endpoint_result("CCc1c2c(nc3ccc(OC(=O)N4CCC(N5CCCCC5)CC4)cc13)-c1cc3c(c(=O)n1C2)COC(=O)[C@]3(O)CC [Irinotecan sulfuric acid addition salt, irinotecan sulfuric acid salt]")
1560

---

Assay: Peroral absorbability in beagles: plasma irinotecan level and pharmacokinetic analysis (Example 6)
Type: in vivo
Details: male, beagle, dog, plasma, oral, 10 mg/kg, peroral, 10 mg/kg as irinotecan, 6 h, mean (n=6) ± SD
Structures can show the parent of a compound that is named as a salt.
measure.name: concentration at 6 h (ng/mL)

>>> endpoint_result("CCc1c2c(nc3ccc(OC(=O)N4CCC(N5CCCCC5)CC4)cc13)-c1cc3c(c(=O)n1C2)COC(=O)[C@]3(O)CC [hydrochloride, reference compound]")
947
